Tested on: Wistar strain of male rats
Test: Anti-pyretic activity (dry-yeast-induced fever)
Type: in vivo, rat (Wistar)
Conditions: oral (dose not given), up to 4 hours after administration
reported_metric: Anti-pyretic activity, inhibitory ratio (febril index) (%)

item_smiles | test_system | measured
CCCCN(C)C(=O)N(C)C(=O)Nc1ccccc1 | Wistar strain of male rats | 35
CN(C)C(=O)N(C)C(=O)Nc1ccccc1C(F)(F)F | Wistar strain of male rats | 65
CN(C(=O)Nc1ccccc1)C(=O)N1CC1 | Wistar strain of male rats | 28
CCCN(C(=O)Nc1ccccc1)C(=O)N(C)C | Wistar strain of male rats | 12
CCCNC(=O)NC(=O)N(C)c1ccccc1 | Wistar strain of male rats | 164
CN(C)C(=O)N(C)C(=O)Nc1ccc(Cl)cc1Cl | Wistar strain of male rats | 42
CN(C)C(=O)N(C)C(=O)Nc1cccc(C(F)(F)F)c1 | Wistar strain of male rats | 62
Cc1cccc(NC(=O)N(C)C(=O)N(C)C)c1C | Wistar strain of male rats | 40
